Test: inhibition of PAO1 biofilm formation – strain PAO1, LB-PBS medium, absorbance 600 nm, primary screen (AID 1176); note: test concentration not given here
Settings: P. aeruginosa PAO1 growth/biofilm, A600, 12 h; higher = more signal
Activity calls are given as the source filed them. The rule behind the calls is not given here.
Entries annotated with measured z-score

{"COMPOUND_STRUCTURE": "CCCC=C(CCC)[C@@H](NS(=O)(=O)CC)c1ccccc1", "z-score": "0.302 (inactive)"}
{"COMPOUND_STRUCTURE": "COC(=O)C(CC#Cc1ccc2c(c1)[C@]1(C(=O)N2)[C@H](C(=O)N2CCc3cc(OC)c(OC)cc3C2)[C@H]2C(=O)O[C@H](c3ccccc3)[C@H](c3ccccc3)N2[C@@H]1c1ccc(OCCO)cc1)C(=O)OC", "z-score": "3.55 (inactive)"}
{"COMPOUND_STRUCTURE": "COC(=O)[C@@]1(Cc2ccc(OC)cc2)[C@H]2c3cc(C(=O)N4CCCC4)n(Cc4ccc(C)o4)c3C[C@H]2CN1C(=O)c1ccccc1", "z-score": "0.411 (inactive)"}
{"COMPOUND_STRUCTURE": "COCCOC(=O)N1C(=O)[C@@]2(c3cc(C#CCCO)ccc31)[C@H](C(=O)NC[C@H](O)c1ccccc1)[C@H]1C(=O)O[C@H](c3ccccc3)[C@H](c3ccccc3)N1[C@@H]2c1ccccc1OCCO", "z-score": "1.12 (inactive)"}

Inquiry: Give a short answer stating reported z-score for "C=C(C(=O)CC[C@H](OC(=O)c1cccnc1)c1ccc(OCCO)cc1)C(C)C" .
Reply text: 0.273 (inactive)

Inquiry: Give a short answer stating reported z-score for "CCCNC(=O)[C@@H]1c2ccccc2C(=O)N(CC23CC4CC(CC(C4)C2)C3)[C@H]1c1ccc(CO)cc1" .
Reply text: 0.718 (inactive)

Inquiry: Give a short answer stating reported z-score for "O=c1c2ccc(Br)cc2nc(-c2ccccc2)n1Cc1cccc(O)c1" .
Reply text: 0.186 (inactive)

====

Test: small molecules captured by biotinylated probe aFGF10 – biochemical, small-molecule microarray, fluorescence 635/667, stem cell growth factor project, primary screen (AID 1071);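 note: score merges 667 nm spot intensity and signal to noise from triplicate slides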
Settings: higher = more signal
composite z-score of 0.2 or higher: True. Under 0.2: False.

{"COMPOUND": "Cc1ccc(S[C@]2(C(=O)O)CC(=O)N(Cc3ccccc3C(F)(F)F)[C@@H]2c2ccc(CO)cc2)cc1", "CLASS_LABEL": "False"}
{"COMPOUND": "COC(=O)[C@@]1(Cc2ccccc2)[C@H]2c3cc(C(=O)N(C)C)n(Cc4ccc(O)c(OC)c4)c3C[C@H]2CN1C(=O)c1ccccc1", "CLASS_LABEL": "True"}
{"COMPOUND": "Cc1ccc(C(C)CC(O)C2C=CC3C(=O)N(Cc4ccccc4)C(=O)C3N2n2cnnc2)o1 (stereo not given)", "CLASS_LABEL": "True"}

Inquiry: Could you please find out whether CCCCC(CC)C(O)C1C=CC2C(=O)NC(=O)C2N1Nc1ccccn1 (stereo not given) has composite z-score that meets 0.2 or exceeds it?
Reply text: True

Inquiry: Could you please find out whether "CN(C)CCCC[C@@H]1NC(=O)[C@H]2C[C@@H](C(=O)NCCCCCCNC(=O)CS)[C@@H](c3ccc(O)cc3)N2C1=O" has composite z-score that meets 0.2 or exceeds it?
Reply text: False

Inquiry: Could you please find out whether "COc1cccc(C)c1NC(=O)O[C@H]1[C@H](OC(=O)Nc2ccccc2)[C@H](OC(=O)Nc2ccccc2)[C@@H](OC)O[C@@H]1CO" has composite z-score that meets 0.2 or exceeds it?
Reply text: True

Inquiry: Could you please find out whether "C=C[C@H](C)[C@H](OC(=O)Nc1ccc(SC)cc1)c1ccc(O)c2ccccc12" has composite z-score that meets 0.2 or exceeds it?
Reply text: False

Inquiry: Could you please find out whether "O=[N+]([O-])c1ccc(C[n+]2ccc(-c3ccc(CO)cc3)cc2)o1" has composite z-score that meets 0.2 or exceeds it?
Reply text: False

Inquiry: Could you please find out whether "COC(=O)[C@@]1(Cc2ccc(OC)cc2)[C@H]2c3cc(C(=O)N(C)C)n(CCF)c3C[C@H]2CN1C(=O)c1ccccc1" has composite z-score that meets 0.2 or exceeds it?
Reply text: True

Inquiry: Could you please find out whether "C/C=C/[C@@H](CCn1cc([C@H](O)c2ccccc2)nn1)[Si](C)(C)c1ccc(OC)cc1" has composite z-score that meets 0.2 or exceeds it?
Reply text: False

Inquiry: Could you please find out whether "CN(C)CCCNC(=O)[C@@]1(Cc2ccccc2I)c2ccccc2C(=O)N(Cc2ccccc2Cl)[C@H]1c1ccc(CO)cc1" has composite z-score that meets 0.2 or exceeds it?
Reply text: True

Inquiry: Could you please find out whether "CO[C@H]1O[C@H](CO)[C@@H](OC(=O)c2ccc(Br)cc2)[C@@H]2OC(=O)[C@H](Cc3cccc(Br)c3)C/C=C/C[C@@H](Cc3cccc(Br)c3)C(=O)O[C@@H]12" has composite z-score that meets 0.2 or exceeds it?
Reply text: True

Inquiry: Could you please find out whether "CCCNC(=O)[C@@H]1c2ccccc2C(=O)N(CC23CC4CC(CC(C4)C2)C3)[C@H]1c1ccc(CO)cc1" has composite z-score that meets 0.2 or exceeds it?
Reply text: True

====

Test system: PRMT1 (protein arginine N-methyltransferase 1)
Assay: small molecules binding arginine methyltransferase PRMT1 – biochemical, small-molecule microarray, 635 nm fluorescence, primary screen (AID 1088);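 note: binding of Prmt1 protein to compounds spotted on small-molecule microarray slides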
Conditions: higher = more signal
READOUT_TYPE: composite z-score
Give a plain numeric answer without units written out.

Some solved entries appear below for comparison.
{"COMPOUND": "CC(C)=CCCC(C)=CC(O)C1C=CC2C(=O)N(c3ccccc3)C(=O)C2N1Nc1ccc([N+](=O)[O-])cc1 (configuration not stated)", "QUANTITATIVE_RESULT": 1.52}
{"COMPOUND": "OCc1ccc(-c2cc[n+](Cc3cccc(OC(F)(F)F)c3)cc2)cc1", "QUANTITATIVE_RESULT": 1.26}
{"COMPOUND": "COc1cc(C(O)C2C=CC3C(=O)N(C)C(=O)C3N2NC(=O)OC(C)(C)C)cc(OC)c1OC (configuration not stated)", "QUANTITATIVE_RESULT": 1.09}
{"COMPOUND": "C=CCC(OC(C)=O)[C@@H]1[C@@H](N(Cc2cccc3ccccc23)C(=O)Cc2ccc(F)cc2)c2cc(OCCCO)ccc2N1C(=O)Cc1ccc(OC)cc1 (some centres not stated)", "QUANTITATIVE_RESULT": -0.151}
{"COMPOUND": "CCCNC(=O)[C@@]1(Sc2ccc(C)cc2)CC(=O)N(Cc2ccccc2)[C@@H]1c1ccc(CO)cc1I", "QUANTITATIVE_RESULT": 0.933}
{"COMPOUND": "C=CCOC(=O)[C@@H]1[C@H]2C(=O)O[C@H](c3ccccc3)[C@H](c3ccccc3)N2[C@H](c2ccc(OCCOC(=O)[C@H]3C[C@H]4C(=O)N[C@@H](Cc5ccccc5)C(=O)N4[C@H]3c3cccc(OCCO)c3)cc2)[C@@]12C(=O)Nc1ccc(I)cc12", "QUANTITATIVE_RESULT": 1.53}
{"COMPOUND": "COc1ccc([Si](C)(C)[C@@H]2[C@@H](CCO)O[C@]3(C(=O)N(Cc4ccc(N5C(=O)c6ccccc6Oc6ccccc65)cc4)c4ccccc43)[C@H]2C)cc1", "QUANTITATIVE_RESULT": 0.106}
{"COMPOUND": "O=C(O)[C@@]1(Cc2ccccc2)COC(c2ccc(OCCCO)cc2)=N1", "QUANTITATIVE_RESULT": -0.269}

Inquiry: Give a short answer stating reported composite z-score for Cc1ccccc1C(O)C1C=CC2C(=O)N(Cc3ccccc3)C(=O)C2N1n1cnnc1 (configuration not stated) .
Reply text: 0.601

Inquiry: Give a short answer stating reported composite z-score for "C=CCNC(=O)[C@@H]1[C@H]2C(=O)O[C@H](c3ccccc3)[C@H](c3ccccc3)N2[C@H](c2ccc(O)cc2)[C@@]12C(=O)Nc1ccc(C#CCCO)cc12" .
Reply text: -0.36

====

Molecular target: Neurogenic locus notch homolog protein 3 (Homo sapiens)
Test: small molecules binding NOTCH3 protein – biochemical, 635/667 nm fluorescence, primary screen (AID 1096)
Settings: small-molecule microarray, 635 nm fluorescence, higher = more signal
READOUT_TYPE: composite z-score
Give a plain numeric answer without units written out.

{"MOLECULE": "C=C(COC)C(=O)CC[C@H](OC(=O)c1ccccc1-c1ccccc1C(=O)O)c1ccc(OCCO)cc1", "QUANTITATIVE_RESULT": 0.615}
{"MOLECULE": "CN(C)C(=O)[C@]1(Cc2ccccc2N=[N+]=[N-])N=C(c2ccc(OCCCO)cc2)O[C@@H]1c1ccccc1CN=[N+]=[N-]", "QUANTITATIVE_RESULT": 1.02}
{"MOLECULE": "C=C(COC)/C(=C/C[C@@H](OC(=O)c1ccncc1)c1cccc(OCCO)c1)c1cc(C(=O)OC)ccc1OC", "QUANTITATIVE_RESULT": 0.841}
{"MOLECULE": "COc1ccc([Si](C)(C)[C@@H]2[C@@H](CCO)O[C@]3(C(=O)N(Cc4ccccc4)c4ccc(N5CCCCC5=O)cc43)[C@H]2C)cc1", "QUANTITATIVE_RESULT": 1.11}
{"MOLECULE": "O=C1O[C@@H](c2ccccc2)[C@@H](c2ccccc2)N2[C@@H](c3ccc(O)cc3)[C@]3(C(=O)Nc4ccc(C#CC5=CCCCC5)cc43)[C@@H](C(=O)Nc3nc4ccccc4s3)[C@H]12", "QUANTITATIVE_RESULT": 1.04}

Inquiry: Enter measured composite z-score, system Neurogenic locus notch homolog protein 3 (Homo sapiens), for the molecule shown: "COC(=O)[C@@]1(Cc2ccc(OC)cc2)[C@H]2c3cc(C(=O)N4CCCC4)n(Cc4ccc(C)o4)c3C[C@H]2CN1C(=O)c1ccccc1"
Reply text: 1.07

Inquiry: Enter measured composite z-score, system Neurogenic locus notch homolog protein 3 (Homo sapiens), for the molecule shown: "C=CCOC(=O)[C@@H]1[C@H]2C(=O)O[C@H](c3ccccc3)[C@H](c3ccccc3)N2[C@H](c2ccc(OCCOC(=O)[C@@H]3C[C@@H]4C(=O)N5CCC[C@H]5C(=O)N4[C@@H]3c3cccc(OCCO)c3)cc2)[C@@]12C(=O)Nc1ccc(I)cc12"
Reply text: 1.11

Inquiry: Enter measured composite z-score, system Neurogenic locus notch homolog protein 3 (Homo sapiens), for the molecule shown: "CCCCCCC#C[Si](O[C@H](c1ccccc1)c1cn(Cc2cccc(Cl)c2)nn1)(C(C)C)C(C)C"
Reply text: 0.487

Inquiry: Enter measured composite z-score, system Neurogenic locus notch homolog protein 3 (Homo sapiens), for the molecule shown: "CC(C)(C)OC(=O)CC[C@@]1(C(=O)N2CCCCC2)N=C(c2ccc(OCCCO)cc2)O[C@@H]1c1ccccc1CN=[N+]=[N-]"
Reply text: 1.05

Inquiry: Enter measured composite z-score, system Neurogenic locus notch homolog protein 3 (Homo sapiens), for the molecule shown: "CCOC(=O)C[C@H]1[C@H](OC(=O)c2ccc(C(=O)c3ccccc3)cc2)[C@@H](NC(=O)C2CCCCC2)c2cc(OCCCO)ccc2N1C(=O)Cc1ccc(OC)cc1"
Reply text: 0.88

Inquiry: Enter measured composite z-score, system Neurogenic locus notch homolog protein 3 (Homo sapiens), for the molecule shown: "C=CC[C@]1(C(=O)N2CCOCC2)N=C(c2ccc(OCCCO)cc2)O[C@H]1c1ccccc1CN=[N+]=[N-]"
Reply text: 1.05

Inquiry: Enter measured composite z-score, system Neurogenic locus notch homolog protein 3 (Homo sapiens), for the molecule shown: CCCCC(O)C1C=CC2C(=O)N(Cc3ccccc3)C(=O)C2N1n1cnnc1 (centres undefined)
Reply text: 0.62

Inquiry: Enter measured composite z-score, system Neurogenic locus notch homolog protein 3 (Homo sapiens), for the molecule shown: CC(C)c1ccc(NN2C(C(O)c3ccccn3)C=CC3C(=O)N(c4ccccc4)C(=O)C32)cc1 (centres undefined)
Reply text: 1.05

Inquiry: Enter measured composite z-score, system Neurogenic locus notch homolog protein 3 (Homo sapiens), for the molecule shown: O=C1C2C=CC(C(O)c3cccc4ccccc34)N(Nc3ccccc3)C2C(=O)N1c1ccccc1 (centres undefined)
Reply text: 1.04
